These data points were gathered from patent US20200407445A1.

# assayedSystem: T1, mouse TIGIT expressed on cells (mouse, UniProt P86176 29-249)
# T1 construct: whole, on cells; on Jurkat cells engineered to express mouse TIGIT; also called mTIGIT; Jurkat-mTIGIT
# T1 sequence (looked up): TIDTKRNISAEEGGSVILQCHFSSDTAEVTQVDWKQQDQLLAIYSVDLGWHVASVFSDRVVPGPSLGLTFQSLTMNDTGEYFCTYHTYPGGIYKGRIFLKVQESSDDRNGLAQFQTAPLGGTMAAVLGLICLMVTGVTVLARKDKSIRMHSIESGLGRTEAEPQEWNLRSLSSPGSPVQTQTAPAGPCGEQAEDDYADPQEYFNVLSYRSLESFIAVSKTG
# measurementNotes: flow cytometry, 100 nM Ab, Jurkat-mTIGIT vs untransfected
measuredQuantity: FON (Fold Over Negative) (fold)
Give the value, in units of fold, as a plain number.

Field: example entries. Status: answers known.
INSERT INTO results (binder, measuredquantity, unitlabel, reportedresult) VALUES
  ('anti-TIGIT antibody clone 26521 (IgG) (antibody, V domains shown, parent clone) VH: QVQLVQSGAEVKKPGSSVKVSCKASGGTFSSYAISWVRQAPGQGLEWMGGIIPIFGTANYAQKFQGRVTITADESTSTAYMELSSLRSEDTAVYYCARLHLGSSAYYGMDVWGQGTTVTVSS VL: DIQMTQSPSSLSASVGDRVTITCRASQSISSYLNWYQQKPGKAPKLLIYAASSLQSGVPSRFSGSGSGTDFTLTISSLQPEDFATYYCQQRYVFPPTFGGGTKVEIK', 'FON (Fold Over Negative)', 'fold', 218),
  ('anti-TIGIT antibody clone 29527 (IgG) (antibody, V domains shown) VH: QVQLVESGGGVVQPGRSLRLSCAASGFTFSSSYMHWVRQAPGKGLEWVAVIGADGSNKYYADSVEGRFTISRDNSKNTLYLQMNSLRAEDTALYYCAKPVPRRRGLDVWGQGTMVTVSS VL: DIQLTQSPSSVSASVGDRVTITCRASQGISSWLAWYQQKPGKAPKLLIYGASSLQSGVPSRFSGSGSGTDFTLTISSLQPEDFATYYCQQAFYLPWTFGGGTKVEIK', 'FON (Fold Over Negative)', 'fold', 414);

Sample anti-TIGIT antibody clone 26486 (IgG) (antibody, V domains shown, parent clone) VH: QVQLQESGPGLVKPSETLSLTCAVSGYSISSGYYWAWIRQPPGKGLEWIGSIYHSGSTYYNPSLKSRVTISVDTSKNQFSLKLSSVTAADTAVYYCAIEGANYYDFGYVAFDIWGQGTMVTVSS VL: EIVMTQSPATLSVSPGERATLSCRASQSVSSNLAWYQQKPGQAPRLLIYGASTRATGIPARFSGSGSGTEFTLTISSLQSEDFAVYYCQQSPPWPRTFGGGTKVEIK — what was its FON (Fold Over Negative)?
199
